Here, compounds appear alongside IC50 reported for UniProt:P42336 in the literature.
readout.name: IC50

1) Cc1cc(N2CCOc3ccc(-c4ccc5[nH]cnc5c4)cc3C2)nc(N)n1	1000 to 2000 nM
2) C=CC(=O)NCCC#Cc1cccc2cc([C@H](C)NC(=O)c3c(N)nn4cccnc34)n(-c3ccccc3)c(=O)c12	1000 to 10000 nM
3) C[C@H](NC(=O)c1c(N)nn2cccnc12)c1cc2cccc(-c3cnn(C)c3)c2c(=O)n1-c1ccccc1	> 10000 nM
4) CNc1ncc(-c2nc(N3CCOCC3)c3nc(N4CCN(C(C)=O)[C@H](C)C4)n(CC(F)(F)F)c3n2)cn1	10 to 20 nM
5) Cc1nc(NC(=O)N2CC[C@@H](C)[C@H]2C(N)=O)sc1-c1ccnc(C(C)(C)C(F)(F)F)c1	27 nM
6) c1nc(N2CCOCC2)c2cc(-c3cnc4[nH]ccc4c3)ccc2n1	50 nM
7) C[C@H](Nc1ccnn2ccnc12)c1cc2cccc(Cl)c2c(OCCN2CCCC2)n1	> 10000 nM
